Biological target: Human PD-L1/PD-1 (Homo sapiens, UniProt Q9NZQ7)
Construct: made in house; host or cells: HEK293T
Sequence (Q9NZQ7 with tags, fused parts or gaps): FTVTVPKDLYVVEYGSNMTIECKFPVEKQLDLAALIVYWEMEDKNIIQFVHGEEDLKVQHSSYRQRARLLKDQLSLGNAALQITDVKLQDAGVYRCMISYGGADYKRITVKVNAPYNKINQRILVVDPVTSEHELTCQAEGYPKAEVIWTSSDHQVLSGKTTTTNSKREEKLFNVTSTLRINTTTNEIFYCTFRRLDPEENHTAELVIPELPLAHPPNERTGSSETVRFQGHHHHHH
Assay: HTRF PD-1-Ig/PD-L1-His binding assay (human PD-L1)
Settings: cluster symbol; read-out: HTRF IC50 cluster
pIC50: −log10 of the molar value. Positions of bridges follow the written chain, without caps; N, C: chain ends. Non-standard residues stand in square brackets, D forms with d. Residues, ends and D or L forms follow the SMILES beside them. *: point of attachment. Bip = N[C@@H](Cc1ccc(-c2ccccc2)cc1)C(=O)O; Phe(4-NH2) = Nc1ccc(C[C@H](N)C(=O)O)cc1; Bta = N[C@@H](Cc1csc2ccccc12)C(=O)O; Cyclobutanecarbonyl = O=C(C1CCC1)*; Hyp = O=C(O)[C@@H]1C[C@@H](O)CN1; NMeF = CN[C@@H](Cc1ccccc1)C(=O)O; NMeNle = CCCC[C@H](NC)C(=O)O; NMeS = CN[C@@H](CO)C(=O)O; NMeA = CN[C@@H](C)C(=O)O; Dab = NCC[C@H](N)C(=O)O; Dap = NC[C@H](N)C(=O)O; Bn = c1ccc(C*)cc1; Sar = CNCC(=O)O
Measured quantity: pIC50

Observe how each entry below is paired with its result.
[[record]]
compound = "CCCC[C@H]1C(=O)N(C)CC(=O)N[C@@H](CC(=O)O)C(=O)N[C@@H](C(C)C)C(=O)N(C)[C@@H](Cc2ccccc2)C(=O)N[C@@H](Cc2ccc(O)cc2)C(=O)N(C)CC(=O)N[C@@H](Cc2c[nH]c3ccccc23)C(=O)N[C@@H](Cc2ccc(-c3ccccc3)cc2)C(=O)N[C@@H](CC(C)C)C(=O)N[C@H](C(=O)NCC(N)=O)CSCC(=O)N[C@@H](Cc2ccccc2)C(=O)N(C)[C@@H](Cc2ccccc2)C(=O)N1C [Example 3547] ({CH2CO}-F[NMeF][NMeNle][Sar]DV[NMeF]Y[Sar]W[Bip]LCG-NH2; thioether N-13)"
measured_quantity = "pIC50"
result = "< 7.52"

[[record]]
compound = "CCCC[C@H]1C(=O)N(C)[C@@H](CCCC)C(=O)N[C@@H](CCC(=O)O)C(=O)N[C@H](C(=O)NCC(N)=O)CSCC(=O)N[C@@H](Cc2ccc(O)cc2)C(=O)N(C)[C@@H](C)C(=O)N[C@@H](CC(=O)O)C(=O)N2CCC[C@H]2C(=O)N[C@@H](Cc2c[nH]cn2)C(=O)N[C@@H](CCCCN)C(=O)N2C[C@H](O)C[C@H]2C(=O)N[C@@H](Cc2c[nH]c3ccccc23)C(=O)N[C@@H](CO)C(=O)N[C@@H](Cc2c[nH]c3ccccc23)C(=O)N1C [Example 5098] ({CH2CO}-Y[NMeA]DPHK[Hyp]WSW[NMeNle][NMeNle]ECG-NH2; thioether N-14)"
measured_quantity = "pIC50"
result = "8.17 to 9.41"

[[record]]
compound = "CC(C)C[C@@H]1NC(=O)[C@H](Cc2c[nH]cn2)NC(=O)[C@@H]2CCCN2C(=O)[C@H](CC(N)=O)NC(=O)[C@H](C)N(C)C(=O)[C@H](Cc2ccccc2)NC(=O)CSC[C@@H](C(=O)NCC(N)=O)NC(=O)[C@H](CCCNC(=N)N)NC(=O)[C@H](C)N(C)C(=O)[C@H](CNC(=O)C2CCC2)NC(=O)[C@H](Cc2c[nH]c3ccccc23)NC(=O)[C@H](CO)NC(=O)[C@H](Cc2c[nH]c3ccccc23)NC(=O)CN(C)C1=O [Example 1033] ({CH2CO}-F[NMeA]NPHL[Sar]WSW[Dap](Cyclobutanecarbonyl)[NMeA]RCG-NH2; thioether N-14)"
measured_quantity = "pIC50"
result = "< 7.52"

[[record]]
compound = "CCCC[C@H]1C(=O)N(C)CC(=O)N[C@@H](CC(=O)O)C(=O)N[C@@H](C(C)C)C(=O)N(C)[C@@H](Cc2ccccc2)C(=O)N[C@@H](Cc2ccc(O)cc2)C(=O)N(C)CC(=O)N[C@@H](Cc2c[nH]c3ccccc23)C(=O)N[C@@H](Cc2ccc(N)cc2)C(=O)N[C@@H](CC(C)C)C(=O)N[C@H](C(=O)NCC(N)=O)CSCC(=O)N[C@@H](Cc2ccccc2)C(=O)N(C)[C@@H](Cc2ccccc2)C(=O)N1C [Example 3140] ({CH2CO}-F[NMeF][NMeNle][Sar]DV[NMeF]Y[Sar]W[Phe(4-NH2)]LCG-NH2; thioether N-13)"
measured_quantity = "pIC50"
result = "7.52 to 8.17"

[[record]]
compound = "CCCC[C@H]1C(=O)N(C)[C@@H](COCc2ccccc2)C(=O)N[C@@H](CCCNC(=N)N)C(=O)N[C@H](C(=O)NCC(N)=O)CSCC(=O)N[C@@H](Cc2ccccc2)C(=O)N(C)[C@@H](C)C(=O)N[C@@H](CC(N)=O)C(=O)N2CCC[C@H]2C(=O)N[C@@H](Cc2cnc[nH]2)C(=O)N[C@@H](CC(C)C)C(=O)N(C)CC(=O)N[C@@H](Cc2c[nH]c3ccccc23)C(=O)N[C@@H](CO)C(=O)N[C@@H](Cc2c[nH]c3ccccc23)C(=O)N1C [Example 6016] ({CH2CO}-F[NMeA]NPHL[Sar]WSW[NMeNle][NMeS](Bn)RCG-NH2; thioether N-14)"
measured_quantity = "pIC50"
result = "7.52 to 8.17"


# compound CCCC[C@H]1C(=O)N(C)[C@@H](CCCC)C(=O)N[C@@H](CCCNC(=N)N)C(=O)N[C@H](C(=O)NCC(N)=O)CSCC(=O)N[C@@H](Cc2ccc(O)cc2)C(=O)N(C)[C@@H](C)C(=O)N[C@@H](CC(N)=O)C(=O)N2CCC[C@H]2C(=O)N[C@@H](Cc2cnc[nH]2)C(=O)N[C@@H](CCC(=O)O)C(=O)N2CCC[C@H]2C(=O)N[C@@H](Cc2c[nH]c3ccccc23)C(=O)N[C@@H](CO)C(=O)N[C@@H](Cc2csc3ccccc23)C(=O)N1C [Example 1115] ({CH2CO}-Y[NMeA]NPHEPWS[Bta][NMeNle][NMeNle]RCG-NH2; thioether N-14) ; its pIC50 = 8.17 to 9.41

Value of pIC50 reported for the compound CCCC[C@H]1C(=O)N(C)[C@@H](CCCC)C(=O)N[C@@H](C)C(=O)N[C@H](C(=O)NCC(N)=O)CSCC(=O)N[C@@H](Cc2ccc(O)cc2)C(=O)N(C)[C@@H](C)C(=O)N[C@@H](CC(N)=O)C(=O)N2CCC[C@H]2C(=O)N[C@@H](Cc2cnc[nH]2)C(=O)N[C@@H](CCC(=O)O)C(=O)N2C[C@H](O)C[C@H]2C(=O)N[C@@H](Cc2c[nH]c3ccccc23)C(=O)N[C@@H](CO)C(=O)N[C@@H](Cc2c[nH]c3ccccc23)C(=O)N1C is 8.17 to 9.41

Recorded pIC50 (compound CCCC[C@H]1C(=O)N(C)[C@@H](CCCC)C(=O)N[C@@H](C)C(=O)N[C@H](C(=O)NCC(N)=O)CSCC(=O)N[C@@H](Cc2ccc(O)cc2)C(=O)N(C)[C@@H](C)C(=O)N[C@@H](CC(N)=O)C(=O)N2CCC[C@H]2C(=O)N[C@@H](CN)C(=O)N[C@@H](CCC(=O)O)C(=O)N2C[C@H](O)C[C@H]2C(=O)N[C@@H](Cc2c[nH]c3ccccc23)C(=O)N[C@@H](CCN)C(=O)N[C@@H](Cc2c[nH]c3ccccc23)C(=O)N1C [Example 5040] ({CH2CO}-Y[NMeA]NP[Dap]E[Hyp]W[Dab]W[NMeNle][NMeNle]ACG-NH2; thioether N-14) ): 7.52 to 8.17
